system name: human orexin-2 receptor (Homo sapiens (Human))
Sequence (O43614 whole entry): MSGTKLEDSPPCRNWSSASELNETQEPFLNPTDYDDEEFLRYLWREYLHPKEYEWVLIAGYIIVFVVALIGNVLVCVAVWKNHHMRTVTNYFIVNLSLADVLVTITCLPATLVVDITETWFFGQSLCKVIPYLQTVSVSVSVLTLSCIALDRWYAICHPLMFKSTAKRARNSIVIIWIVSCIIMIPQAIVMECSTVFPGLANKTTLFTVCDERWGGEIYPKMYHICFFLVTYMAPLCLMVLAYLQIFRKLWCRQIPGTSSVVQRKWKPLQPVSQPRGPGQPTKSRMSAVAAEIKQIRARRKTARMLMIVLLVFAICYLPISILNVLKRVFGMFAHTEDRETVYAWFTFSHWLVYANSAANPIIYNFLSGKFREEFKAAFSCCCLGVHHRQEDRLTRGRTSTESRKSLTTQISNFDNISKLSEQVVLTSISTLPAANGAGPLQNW
method notes: In vitro assay: intracellular calcium measurements (FLIPR), antagonistic activity
applied conditions: CHO cells expressing human orexin-2 receptor, orexin-A agonist, geometric mean, read-out: IC50 Ox2
Method: In Vitro Assay: Intracellular Calcium Measurements: […] Within the Fluorescent Imaging Plate Reader (FLIPR Tetra, Molecular Devices), antagonists are added to the plate in a volume of 10 μl/well, incubated for 120 min and finally 10 μl/well of agonist is added. […] The calculated IC50 values may fluctuate depending on the daily cellular assay performance. […]
parameter: pIC50
Expect pIC50 as a plain number equal to -log10 of the molar concentration.

Data point: COc1ccc(-c2sc(C)nc2C(=O)N2CC[C@H](C)[C@H]2c2nc3cc(OC)c(OC)cc3[nH]2)cn1 ; pIC50 = 5.35

Briefly, pIC50 measured for C=C1C[C@@H](c2nc3cc(OC)ccc3[nH]2)N(C(=O)c2nccnc2-c2cccc(C)c2)C1 : 7.28

Item: Cc1ccc(-n2nccn2)c(C(=O)N2CCC[C@@]2(C)c2nc3cc(Br)cc(C)c3n2C)c1 | pIC50: 8.22

Briefly, pIC50 measured for Cc1nc(C(=O)N2CC[C@H](C)[C@H]2c2nc3cc(C(F)(F)F)ccc3[nH]2)c(-c2ccc(Br)cc2)s1 : 5.67

###

system name: UniProt:O43613
Sequence (O43613 whole entry): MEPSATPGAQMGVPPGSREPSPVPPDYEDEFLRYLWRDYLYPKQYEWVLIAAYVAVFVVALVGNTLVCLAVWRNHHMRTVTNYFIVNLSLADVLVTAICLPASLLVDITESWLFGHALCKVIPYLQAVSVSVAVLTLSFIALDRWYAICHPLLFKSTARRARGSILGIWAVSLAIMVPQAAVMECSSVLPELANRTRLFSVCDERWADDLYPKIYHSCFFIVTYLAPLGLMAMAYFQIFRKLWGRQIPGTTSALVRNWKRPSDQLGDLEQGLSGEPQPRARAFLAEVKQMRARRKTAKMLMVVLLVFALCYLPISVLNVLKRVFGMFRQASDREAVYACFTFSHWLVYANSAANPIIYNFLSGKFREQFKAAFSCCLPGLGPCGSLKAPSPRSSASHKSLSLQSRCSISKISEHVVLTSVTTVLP
method notes: In vitro assay: intracellular calcium measurements (FLIPR), antagonistic activity
applied conditions: CHO cells expressing human orexin-1 receptor, orexin-A agonist, geometric mean, read-out: IC50 Ox1
Measured IC50 of individual entries
Respond with the bare value in nM.

Here are 7 compounds together with their reported answers.
1) CO[C@@H]1C[C@@H](c2nc3ccc(Cl)c(C)c3[nH]2)N(C(=O)c2nc(C)sc2-c2cccc(C)c2)C1 :: 0.9
2) C[C@@]1(c2nc3cc(C(F)(F)F)c(Cl)cc3[nH]2)CCCN1C(=O)c1cc(Cl)ccc1-n1nccn1 :: 2
3) C=C1C[C@@H](c2nc3cc(OC)ccc3[nH]2)N(C(=O)c2nc(C)sc2-c2cc(F)cc(F)c2)C1 :: 422
4) COc1cc2nc([C@]3(C)CCCN3C(=O)c3ccccc3-n3cccn3)[nH]c2cc1OC :: 258
5) Cc1ccc(-n2nccn2)c(C(=O)N2CCC[C@@]2(C)c2nc3cc(F)c(Br)cc3[nH]2)c1F :: 113
6) COc1cc2nc([C@]3(C)CCCN3C(=O)c3cc(C)ccc3-n3cccn3)[nH]c2cc1OC :: 27
7) Cc1cc(C)c2nc([C@@H]3CCCN3C(=O)c3nc(C)sc3-c3ccccc3)[nH]c2c1 :: 24

Form field IC50, entry Cc1ccc(-n2nccn2)c(C(=O)N2CCC[C@@]2(C)c2nc3c4c(ccc3[nH]2)OCCO4)c1 : 25

###

system name: UniProtKB O43614
method notes: In vitro assay: intracellular calcium measurements (FLIPR), antagonistic activity
applied conditions: CHO cells expressing human orexin-2 receptor, orexin-A agonist, geometric mean, read-out: IC50 Ox2
pIC50: −log10 of the molar value.
Threshold check on pIC50: at or above 7 gives YES, strictly below gives NO.

# count of solved cases: 4
1) Cc1ccc(-c2ccccc2C(=O)N2CC[C@H](C)[C@H]2c2nc3c(C)cc(Cl)cc3[nH]2)cc1 :: NO
2) C=C1C[C@@H](c2nc3cc(OC)ccc3[nH]2)N(C(=O)c2nc(C3CC3)sc2-c2ccc(C)c(F)c2)C1 :: YES
3) Cc1nc(C(=O)N2CC[C@H](C)[C@H]2c2nc3cc(C(F)(F)F)ccc3[nH]2)c(-c2ccc(Cl)cc2)s1 :: NO
4) C=C1C[C@@H](c2nc3cc(Cl)c(C(F)(F)F)cc3[nH]2)N(C(=O)c2c(-n3nccn3)ccc(C)c2F)C1 :: YES

# bool: pIC50 of COc1cccc(-c2sc(C)nc2C(=O)N2CCC[C@@]2(C)c2nc3c(F)c(F)ccc3[nH]2)c1 >= 7
YES

Would you say Cc1ccc(-c2ccc(OC(F)(F)F)cc2)c(C(=O)N2CCC[C@@]2(C)c2nc3cc(C(F)(F)F)c(Cl)cc3[nH]2)c1 shows pIC50 at minimum 7?
NO

I'd appreciate it if you could say whether Cc1ccc(-n2nccn2)c(C(=O)N2CCC[C@@]2(C)c2nc3cc(C(F)(F)F)c(Cl)cc3[nH]2)c1 has pIC50 at least equal to 7.
YES

Entry source: patent US9732075B2
